# Tested on: Staphylococcus aureus
# experiment_description: Antimicrobial activity against Staphylococcus aureus incubated for 16 to 18 hrs by broth dilution assay
# Assay type: functional
# assay_conditions: time 16-18 hrs
This listing pairs compounds with measured MIC.
quantity_kind: MIC

>>> print(df.to_string())
                           smiles_structure        value
0  CCCCCCCC[n+]1ccc(SCC2=C(C(=O)O)N3C(=O)[C@@H](NC(=O)Cc4ccccc4)[C@H]3SC2)cc1.O=C([O-])C(F)(F)F  0.063 µg/mL
1  CCCCCCCCCC[n+]1ccc(-c2cc[n+](CC3=C(C(=O)OCc4ccc(OC)cc4)N4C(=O)[C@@H](NC(=O)Cc5ccccc5)[C@H]4SC3)cc2)cc1.[I-].[I-]    0.5 µg/mL
2  CCCCCCCCCCNC(=O)c1ccc[n+](CC2=C(C(=O)OCc3ccc(OC)cc3)N3C(=O)[C@@H](NC(=O)Cc4ccccc4)[C@H]3SC2)c1.[I-]   0.25 µg/mL
3  CCCCCC[n+]1ccc(C(=O)N[C@@H]2C(=O)N3C(C(=O)O)=C(COC(C)=O)CS[C@H]23)cc1.[I-]  > 128 µg/mL
4  CCCCCCCCCCNC(=O)c1cc[n+](CC2=C(C(=O)OCc3ccc(OC)cc3)N3C(=O)[C@@H](NC(=O)Cc4ccccc4)[C@H]3SC2)cc1.[I-]   0.25 µg/mL
5  CCCCCCNC(=O)c1cc[n+](CC2=C(C(=O)O)N3C(=O)[C@@H](NC(=O)Cc4ccccc4)[C@H]3SC2)cc1.[I-]  0.125 µg/mL
